The entries below come with measured inhibition values attached.
TEST TARGET: Adenine DNA glycosylase (Homo sapiens) (UniProt Q9UIF7);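 also: human MUTYH activity read as 594 nm fluorescence from cleavage and release of a quenched DNA duplex, coupled with APE1 for strand incision, lower signal meaning inhibition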
Sequence (Q9UIF7 whole entry): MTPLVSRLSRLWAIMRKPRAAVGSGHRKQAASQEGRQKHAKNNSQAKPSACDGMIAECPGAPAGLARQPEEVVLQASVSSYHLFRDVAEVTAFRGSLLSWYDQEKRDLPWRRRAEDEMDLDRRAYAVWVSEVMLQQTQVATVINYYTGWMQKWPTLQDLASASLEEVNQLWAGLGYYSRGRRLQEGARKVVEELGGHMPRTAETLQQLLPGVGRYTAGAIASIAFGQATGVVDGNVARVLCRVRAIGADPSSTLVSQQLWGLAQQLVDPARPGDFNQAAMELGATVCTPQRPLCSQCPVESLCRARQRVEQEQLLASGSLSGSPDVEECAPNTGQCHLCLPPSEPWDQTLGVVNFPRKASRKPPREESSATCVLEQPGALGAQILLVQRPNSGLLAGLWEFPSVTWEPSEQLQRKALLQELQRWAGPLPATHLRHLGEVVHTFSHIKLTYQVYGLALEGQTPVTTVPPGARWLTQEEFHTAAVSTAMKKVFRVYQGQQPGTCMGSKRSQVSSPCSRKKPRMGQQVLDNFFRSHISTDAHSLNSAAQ
RUN PARAMETERS: Compound Concentration 10.0 uM, Hit No
Description: Inhibition of MUTYH by quantifying inhibition of MUTYH-mediated cleavage and dissociation of quenched duplex DNA oligonucleotides, measured as fluorescence at 594 nm. To generate a functional strand incision and increase turn-over this assay is coupled to APE1.
PROPERTY LABEL: inhibition (%)

{"columns": ["COMPOUND", "UNIT LABEL", "QUANTITATIVE READOUT"],
 "data": [
  ["CCC(=O)N[C@H]1CC[C@@H](C(=O)N(C)c2ccc(-c3nc4ccccc4o3)cc2)C1", "%", 8.31],
  ["CNC1(C)C2CCC(C2)C1(C)C (centres undefined)", "%", -4.75],
  ["CCc1nc2c(C)cc(C)nc2[nH]1", "%", -7.66],
  ["COc1nc2ccc([C@@](O)(c3ccc(Cl)cc3)c3cncn3C)cc2c(Cl)c1Cc1ccc(-n2cccn2)cc1", "%", 6.4],
  ["NCCc1c[nH]c2ccc(C(N)=O)cc12", "%", 4.88],
  ["O=C(O)CCCCCC[C@H]1C(=O)NC(=O)N1CCC(O)C1CCCCC1 (some centres undefined)", "%", 39.4],
  ["CN(C)C(=O)N1CC[C@H](NC2=Nc3cc(F)ccc3N(CC(F)F)c3ccc(Cl)cc32)C1", "%", 36.6],
  ["Cc1c(N2CCCC2)nc2ccc(Br)cc2c1C(=O)NC[C@H](CCC(=O)O)c1ccccc1Cl", "%", 22],
  ["O=C(N[C@@H]1C2CCN(CC2)[C@H]1Cc1cccnc1)c1cc2ccccc2o1", "%", -1.82]
]}
